experiment_description: Cytotoxicity in MT-2 cells
Type: cell-based
condition_notes: human
Recorded CC50 by entry

# smiles_string, measured
measured = [
    ("CCNc1nc(=O)n([C@H]2C[C@H](O)[C@](CO)(N=[N+]=[N-])O2)cc1C", "> 100 µM"),
    ("Cc1cn([C@H]2C[C@H](O)[C@](CO)(N=[N+]=[N-])O2)c(=O)nc1N", "> 100 µM"),
    ("Cc1cn([C@H]2C[C@H](O)[C@](CO)(N=[N+]=[N-])O2)c(=O)[nH]c1=O", "> 100 µM"),
]

Input: Query (compound): `C=C1[C@H](CO)[C@@H](O)C[C@@H]1n1cnc2c(=O)[nH]c(N)nc21` ; field requested: CC50
Output: 57.2 µM

Input: Item: `CNc1nc(=O)n([C@H]2C[C@H](O)[C@](CO)(N=[N+]=[N-])O2)cc1C`
Output: > 100 µM

###

Listing of entries alongside the reported CC50.
System: MT-2 cells
experiment_description: Cytotoxicity in MT-2 cells
Assay type: cell-based
condition_notes: read-out: CC50 (50% cytotoxic concentration)

Input: For the compound `CCOc1nc(=O)n([C@H]2C[C@H](O)[C@](CO)(N=[N+]=[N-])O2)cc1C` , what CC50 is on record?
Output: > 100 µM

Input: Also check `Cc1cn([C@H]2C[C@H](O)[C@](CO)(N=[N+]=[N-])O2)c(=O)nc1NC1CC1`
Output: > 100 µM

Input: Can you handle COc1nc(=O)n(C2CC(O)C(CO)(N=[N+]=[N-])O2)cc1C (stereo not drawn) next?
Output: > 100 µM
